Values from patent US9573913B2

Biological target: human cathepsin K (UniProt P43236)
Experiment: Cathepsin K Assay (hrbCat K)
Assay type: biochemical
Conditions: Z-Leu-Arg-AMC substrate, pH 5.5, 15 min preincubation; read-out: hrbCat K (IP (nM))
PROPERTY_MEASURED: IC50 (nM)

(1) N#CC1(NC(=O)[C@@H]2CCCC[C@H]2c2nc(-c3ccc4c(c3)OCCO4)sc2-c2ccc(N3CCS(=O)(=O)CC3)cc2)CC1
(2) N#Cc1cc(Cl)ccc1-c1nc([C@@H]2CCCC[C@H]2C(=O)NC2(C#N)CC2)c(-c2ccc(N3CCS(=O)(=O)CC3)cc2)s1
Query: Larger number for IC50: 1 , or 2 ? Select an item and report its label.
Result: 2

(A) N#CC1(NC(=O)[C@@H]2CCCC[C@H]2c2nc(-c3ccon3)sc2-c2ccc(N3CCS(=O)(=O)CC3)cc2)CC1
(B) N#Cc1cccc(-c2nc([C@@H]3CCCC[C@H]3C(=O)NC3(C#N)CC3)c(-c3ccc(N4CCS(=O)(=O)CC4)cc3)s2)c1
(C) N#CC1(NC(=O)[C@@H]2CCCC[C@H]2c2nc(C3CCOC3)sc2-c2ccc(N3CCS(=O)(=O)CC3)cc2)CC1 (mixture of isomers)
(D) Cc1ccc(-c2nc([C@@H]3CC[C@H](F)C[C@H]3C(=O)NC3(C#N)CC3)c(-c3ccc(N4CCC(S(C)(=O)=O)CC4)cc3)s2)nn1
Query: # ascending order, key=IC50 Would you mind listing the labels in the order asked for?
Result: A, B, D, C
(A: 1 nM, B: 2 nM, D: 2.9 nM, C: 4.5 nM)

(P) COc1ccc(-c2nc([C@@H]3CC[C@H](F)C[C@H]3C(=O)NC3(C#N)CC3)c(-c3ccc(N4CCS(=O)(=O)CC4)cc3)s2)nc1
(Q) Cc1cc(C#N)ccc1-c1nc([C@@H]2CCCC[C@H]2C(=O)NC2(C#N)CC2)c(-c2ccc(N3CCS(=O)(=O)CC3)cc2)s1
(R) COc1ccc(-c2nc([C@@H]3CCCC[C@H]3C(=O)NC3(C#N)CC3)c(-c3ccc(N4CCS(=O)(=O)CC4)cc3)s2)cc1
(S) Cc1nc([C@@H]2CC[C@H](F)C[C@H]2C(=O)NC2(C#N)CC2)c(-c2ccc(N3CCC(F)(F)CC3)cc2)s1
Query: Put the items in sequence by IC50, from largest down. Would you mind listing the labels in the order asked for?
Result: S, Q, R, P
(S: 8 nM, Q: 3.6 nM, R: 1.8 nM, P: 1.1 nM)

----------
Target: human cathepsin F (Homo sapiens)
Assay: Cathepsin F assay (hCat F)
Format: biochemical
Conditions: Z-Phe-Arg-AMC substrate, pH 5.5, 15 min preincubation; read-out: hCat F (IP (nM))
PROPERTY_MEASURED: IC50 (nM)

N#CC1(NC(=O)[C@@H]2C[C@@H](F)CC[C@H]2c2nc(-c3ccc(F)cn3)sc2-c2ccc(N3CCS(=N)(=O)CC3)cc2)CC1 = 1000
N#CC1(NC(=O)[C@@H]2CCCC[C@H]2c2nc(-c3cccc(F)c3F)sc2-c2ccc(N3CCS(=O)(=O)CC3)cc2)CC1 = 1000
CC(C)S(=O)(=O)c1ccc(-c2sc(-c3cncc(F)c3)nc2[C@@H]2CCCC[C@H]2C(=O)NC2(C#N)CC2)cc1 = 846
N#CC1(NC(=O)[C@@H]2CCCC[C@H]2c2nc(-c3cncc(Cl)c3)sc2-c2ccc(N3CCS(=O)(=O)C4(CC4)C3)cc2)CC1 = 1000

----------
Molecular target: human cathepsin K (UniProt P43236)
Test: Cathepsin K Assay (hrbCat K)
Assay type: biochemical
Conditions: Z-Leu-Arg-AMC substrate, pH 5.5, 15 min preincubation; read-out: hrbCat K (IP (nM))
Method: Cathepsin K Assay (hrbCat K) Then 0.5 μL of DMSO from each dilution were added to 18.75 μL of assay buffer (MES, 50 mM (pH 5.5); EDTA, 2.5 mM; DTT, 2.5 mM and 10% DMSO) containing human cathepsin K (0.4 nM) in assay buffer solution. The assay solutions were mixed for 5-10 seconds on a shaker plate and incubated for 15 minutes at room temperature. […] Percent of inhibition were calculated by fitting experimental values to standard mathematical model for dose response curve.
PROPERTY_MEASURED: IC50 (nM)

(1) N#CCNC(=O)[C@@H]1C[C@@H](F)CC[C@H]1c1nc(-c2ccc(F)cn2)sc1-c1ccc(N2CCS(=O)(=O)CC2)cc1 [Example 124]
(2) N#CC1(NC(=O)[C@@H]2CCCC[C@H]2c2nc(Nc3ccccc3)sc2-c2ccc(N3CCS(=O)(=O)CC3)cc2)CC1 [Example 179]
(3) N#CC1(NC(=O)[C@@H]2CCCC[C@H]2c2nc(C(F)(F)c3ccccc3)sc2-c2ccc(N3CCS(=O)(=O)CC3)cc2)CC1 [Example 183]
(4) N#CC1(NC(=O)[C@@H]2CCCC[C@H]2c2nc(-c3ccnc(C(F)(F)F)n3)sc2-c2ccc(N3CCS(=O)(=O)CC3)cc2)CC1 [Example 118]
Query: // ascending sort on IC50 for the entries above Would you mind listing the labels in the order asked for?
Result: 1, 3, 2, 4

----------
Molecular target: human cathepsin K (UniProt P43236)
Assay: Cathepsin K Assay (hrbCat K)
Format: biochemical
Settings: Z-Leu-Arg-AMC substrate, pH 5.5, 15 min preincubation; read-out: hrbCat K (IP (nM))
PROPERTY_MEASURED: IC50 (nM)

COc1ccccc1-c1nc([C@@H]2CCCC[C@H]2C(=O)NC2(C#N)CC2)c(-c2ccc(N3CCS(=O)(=O)CC3)cc2)s1 = 2.1

(a) CC(C#N)NC(=O)[C@@H]1C[C@@H](F)CC[C@H]1c1nc(-c2cncc(F)c2)sc1-c1ccc(N2CCS(=O)(=O)CC2)cc1 (single isomer, unassigned) [Example 127]
(b) CN=S1(=O)CCN(c2ccc(-c3oc(C(C)(C)C)nc3[C@@H]3CC[C@H](F)C[C@H]3C(=O)NC3(C#N)CC3)cc2)CC1
Query: Larger number for IC50: a , or b ? Select an item and report its label.
Result: a
(a: 42.5 nM, b: 5.2 nM)

(A) CC(C)C(C#N)NC(=O)[C@@H]1CCCC[C@H]1c1nc(-c2ccc(F)cn2)sc1-c1ccc(N2CCS(=O)(=O)CC2)cc1 (single isomer, unassigned) [Example 191]
(B) CC(C)(C)c1nc([C@@H]2CCCC[C@H]2C(=O)NC2(C#N)CC2)c(-c2ccc(N3CCS(=O)(=O)CC3)cc2)s1
Query: Could you check which of A and B has a smaller value for IC50? Select an item and report its label.
Result: A

----------
Target: human cathepsin F (Homo sapiens, UniProt Q9UBX1)
Sequence (Q9UBX1 271-484): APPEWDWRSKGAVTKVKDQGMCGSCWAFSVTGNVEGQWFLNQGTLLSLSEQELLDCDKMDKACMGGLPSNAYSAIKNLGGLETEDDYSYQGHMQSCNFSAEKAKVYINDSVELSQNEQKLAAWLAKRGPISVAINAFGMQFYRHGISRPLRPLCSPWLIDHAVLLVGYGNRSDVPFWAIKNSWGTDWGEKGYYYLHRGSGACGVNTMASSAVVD
Experiment: Cathepsin F assay (hCat F)
Format: biochemical
Conditions: Z-Phe-Arg-AMC substrate, pH 5.5, 15 min preincubation; read-out: hCat F (IP (nM))
PROPERTY_MEASURED: IC50 (nM)

These recorded examples may help you get a feel for the data.
N#CC1(NC(=O)[C@@H]2CC(F)(F)CC[C@H]2c2nc(-c3ccc(F)cc3)oc2-c2ccc(N3CCS(=O)(=O)CC3)cc2)CC1 = 61
C[C@@H](C#N)NC(=O)[C@@H]1C[C@@H](F)CC[C@H]1c1nc(C2CC(F)C2)sc1-c1ccc(N2CCS(=O)(=O)CC2)cc1 (single isomer, unassigned) [Example 234] = 6100

(I) Cc1ccc(-c2nc([C@@H]3CC[C@H](F)C[C@H]3C(=O)NC3(C#N)CC3)c(-c3ccc(N4CCOCC4)cc3)s2)nn1
(II) CS(=O)(=O)N1CCN(C(=O)c2ccc(-c3sc(-c4ccc(F)cc4)nc3[C@@H]3CCCC[C@H]3C(=O)NC3(C#N)CC3)cc2)CC1
(III) N#CC1(NC(=O)[C@@H]2CCCC[C@H]2c2nc(-c3ccc(F)cc3)oc2-c2ccc(N3CCS(=O)(=O)CC3)cc2)CC1
Query: Put the items in sequence by IC50, from largest down. Would you mind listing the labels in the order asked for?
Result: I, III, II
(I: 2480 nM, III: 1110 nM, II: 410 nM)

----------
Target: UniProt P43236
Assay: Cathepsin K Assay (hrbCat K)
Format: biochemical
Conditions: Z-Leu-Arg-AMC substrate, pH 5.5, 15 min preincubation; read-out: hrbCat K (IP (nM))
PROPERTY_MEASURED: IC50 (nM)

(A) Cc1nc([C@@H]2CCCC[C@H]2C(=O)NCC#N)c(-c2ccc(N3CCS(=O)(=O)CC3)cc2)o1
(B) N#CC1(NC(=O)[C@@H]2CCCC[C@H]2c2nc(-c3ccc(C4CCOCC4)cc3)sc2-c2ccc(N3CCS(=O)(=O)CC3)cc2)CC1
(C) Cn1cc(-c2nc([C@@H]3CCCC[C@H]3C(=O)NC3(C#N)CC3)c(-c3ccc(N4CCS(=O)(=O)CC4)cc3)s2)ccc1=O
Query: // ascending sort on IC50 for the entries above Would you mind listing the labels in the order asked for?
Result: B, C, A
